Origin of measurements: BigSolDB 2.1

# RECORDED_CONDITIONS: in water, 278.15 K
METRIC: solubility (mole fraction)
Could you keep your reply to the number by itself?

GET /values?readout=solubility (mole fraction)&item= N[C@@H](CC(=O)N1CCn2c(nnc2C(F)(F)F)C1)Cc1cc(F)c(F)cc1F
0.000281

* * *

# RECORDED_CONDITIONS: in acetonitrile, 293.15 K
METRIC: solubility (mole fraction)
Could you keep your reply to the number by itself?

GET /values?readout=solubility (mole fraction)&item= N[C@@H](CC(=O)N1CCn2c(nnc2C(F)(F)F)C1)Cc1cc(F)c(F)cc1F
0.0536

* * *

# RECORDED_CONDITIONS: in n-butanol, 318.15 K
METRIC: solubility (mole fraction)
Could you keep your reply to the number by itself?

GET /values?readout=solubility (mole fraction)&item= N[C@@H](CC(=O)N1CCn2c(nnc2C(F)(F)F)C1)Cc1cc(F)c(F)cc1F
0.0382

* * *

# RECORDED_CONDITIONS: in ethanol, 318.15 K
METRIC: solubility (mole fraction)
Could you keep your reply to the number by itself?

GET /values?readout=solubility (mole fraction)&item= N[C@@H](CC(=O)N1CCn2c(nnc2C(F)(F)F)C1)Cc1cc(F)c(F)cc1F
0.078

* * *

# RECORDED_CONDITIONS: in isobutanol, 308.15 K
METRIC: solubility (mole fraction)
Could you keep your reply to the number by itself?

GET /values?readout=solubility (mole fraction)&item= N[C@@H](CC(=O)N1CCn2c(nnc2C(F)(F)F)C1)Cc1cc(F)c(F)cc1F
0.0255

* * *

# RECORDED_CONDITIONS: in isobutanol, 303.15 K
METRIC: solubility (mole fraction)

GET /values?readout=solubility (mole fraction)&item= N[C@@H](CC(=O)N1CCn2c(nnc2C(F)(F)F)C1)Cc1cc(F)c(F)cc1F
0.0216

* * *

# RECORDED_CONDITIONS: in sec-butanol, 283.15 K
METRIC: solubility (mole fraction)

GET /values?readout=solubility (mole fraction)&item= N[C@@H](CC(=O)N1CCn2c(nnc2C(F)(F)F)C1)Cc1cc(F)c(F)cc1F
0.00346

* * *

# RECORDED_CONDITIONS: in isopropanol, 288.15 K
METRIC: solubility (mole fraction)
Could you keep your reply to the number by itself?

GET /values?readout=solubility (mole fraction)&item= N[C@@H](CC(=O)N1CCn2c(nnc2C(F)(F)F)C1)Cc1cc(F)c(F)cc1F
0.00703

* * *

# RECORDED_CONDITIONS: in n-butanol, 308.15 K
METRIC: solubility (mole fraction)
Could you keep your reply to the number by itself?

GET /values?readout=solubility (mole fraction)&item= N[C@@H](CC(=O)N1CCn2c(nnc2C(F)(F)F)C1)Cc1cc(F)c(F)cc1F
0.0262

* * *

# RECORDED_CONDITIONS: in water, 298.15 K
METRIC: solubility (mole fraction)
Could you keep your reply to the number by itself?

GET /values?readout=solubility (mole fraction)&item= N[C@@H](CC(=O)N1CCn2c(nnc2C(F)(F)F)C1)Cc1cc(F)c(F)cc1F
0.00042

* * *

# RECORDED_CONDITIONS: in n-propanol, 323.15 K
METRIC: solubility (mole fraction)

GET /values?readout=solubility (mole fraction)&item= N[C@@H](CC(=O)N1CCn2c(nnc2C(F)(F)F)C1)Cc1cc(F)c(F)cc1F
0.0804
